- Tested on: yeast strains expressing the human ApoE4
- Test description: Yeast ApoE4 toxicity rescue assay (OD600 growth)
- Condition label: 24 h, read-out: ApoE4 Emax
Measured quantity: Emax (%)
Express the result in % but write the number alone.

Ask | Write Emax of COc1ccc(-c2noc(C3CCN(C(=O)COCc4ccccc4)CC3)n2)cc1OC ; system used: yeast strains expressing the human ApoE4
Reply | 721

Ask | Write Emax of O=C(NCC(=O)N1CCC(c2nc(-c3ccc(F)c(F)c3)no2)CC1)c1ccccc1 ; system used: yeast strains expressing the human ApoE4
Reply | 301

Ask | Write Emax of COc1ccc(-c2noc(N3CCC(C(=O)N4CCCCC4)CC3)n2)cc1OC ; system used: yeast strains expressing the human ApoE4
Reply | 815

Ask | Write Emax of CC1(C)CC(=O)c2c(O)cc(OCC(=O)N3CCC(c4nc(-c5ccccc5)no4)CC3)cc2O1 ; system used: yeast strains expressing the human ApoE4
Reply | 162
